Target sequence: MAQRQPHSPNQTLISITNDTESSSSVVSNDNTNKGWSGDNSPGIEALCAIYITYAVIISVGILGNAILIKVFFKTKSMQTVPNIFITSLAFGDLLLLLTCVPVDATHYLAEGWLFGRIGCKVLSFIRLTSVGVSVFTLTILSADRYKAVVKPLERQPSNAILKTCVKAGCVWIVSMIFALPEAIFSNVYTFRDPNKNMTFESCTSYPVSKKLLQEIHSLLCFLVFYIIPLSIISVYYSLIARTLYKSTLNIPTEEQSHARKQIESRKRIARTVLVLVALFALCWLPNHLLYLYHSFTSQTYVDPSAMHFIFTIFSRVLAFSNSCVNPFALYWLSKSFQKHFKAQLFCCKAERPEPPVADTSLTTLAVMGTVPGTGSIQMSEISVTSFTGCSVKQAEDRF
pIC50: −log10 of the molar value.
MEASURED_PROPERTY: pIC50

Ask: Tell us which pIC50 value is on record for CC(C)(C)Cc1c[nH]c(C(C)(O)Cc2ccc(-n3cccn3)cc2)n1 (stereo not shown)
Reply: 6.71

Ask: Tell us which pIC50 value is on record for CCNC(Cc1ccc(-c2ccccn2)cc1)c1nc(CC(C)(C)C)c[nH]1 (stereo not shown)
Reply: 6.61

Ask: Tell us which pIC50 value is on record for CCC(C)(C)Cc1c[nH]c(C(Cc2ccc(-c3ccc(F)cn3)cc2)NC)n1 (single isomer, unassigned)
Reply: 6.55

Ask: Tell us which pIC50 value is on record for CC(=O)NC(Cc1ccc(-c2ccc(F)cn2)cc1)c1nc(CC(C)(C)C)c[nH]1 (stereo not shown)
Reply: 6.66
